The reported measurements were obtained from the array DNA melting data of Ke et al. (doi:10.1101/2024.01.08.574731).

Test: folding enthalpy; higher = less favourable; fluorescence melt of hairpins on a sequencing array, two-state fit
Details: sodium 0.088 M
Record yes whenever folding enthalpy is at -20 kcal/mol or higher; record no when lower.

[Q] Form field: folding enthalpy at least -20 kcal/mol? Entry: GCGACCGAAAGGTTCCGC ((((((....)))..)))
[A] yes

[Q] Is folding enthalpy for GCCAGGCGAAAGCGTTGC ((.(.((....)).).)) at or above -20 kcal/mol?
[A] yes

[Q] Does the sequence GCCAAAGGAAACCTTGGC (((((.(....).))))) have recorded folding enthalpy that is -20 kcal/mol or more?
[A] no

[Q] Check this sequence for folding enthalpy at or above -20 kcal/mol: GCCTGCGGAAACGCAGAC (.(((((....))))).)
[A] yes

[Q] Test whether the sequence GATCGGAAGGCCGATC ((((((....)))))) records folding enthalpy of -20 kcal/mol or higher.
[A] no

[Q] Hi, just wondering whether GCCTGGGCGAAAGCCGGC (((..(((....)))))) shows folding enthalpy of -20 kcal/mol or higher.
[A] no

[Q] Hi, just wondering whether GGTGGGCGAAAGCCAACC (((.(((....))).))) shows folding enthalpy of -20 kcal/mol or higher.
[A] no

[Q] Reported folding enthalpy reaches at least -20 kcal/mol for GCGCGGCGAAAGCAACGC (((..((....))..))) ?
[A] yes

[Q] Confirm if folding enthalpy reported for the sequence GTCTCCGGAAACGGAGGC (.(((((....))))).) is -20 kcal/mol or above.
[A] no

[Q] Confirm if folding enthalpy reported for the sequence GCACACGAAAGTGACTGC ((((((....)))..))) is -20 kcal/mol or above.
[A] yes

[Q] Tell me whether folding enthalpy is at least -20 kcal/mol here: GAGCGGCCGAAAGGCCTC (((..(((....))))))
[A] yes

[Q] Please check the record GAACCTGGAAACAGGTTC (((((((....))))))) and state if its folding enthalpy is at or above -20 kcal/mol.
[A] no

[Q] Does the reported folding enthalpy for GAGTAAGAAATTACTC ((((((....)))))) fall at or above the -20 kcal/mol mark?
[A] no

[Q] API: above_or_equal(metric=folding enthalpy, cutoff=-20 kcal/mol) for item GATCTGTTGCAGATC ((((((...))))))
[A] no

[Q] Check this sequence for folding enthalpy at or above -20 kcal/mol: GGTTACCGAAAGGTCACC (((.(((....))).)))
[A] no

[Q] Decide: is the reported value of folding enthalpy for GATCCGCGCCGGATC ((((((...)))))) equal to or greater than -20 kcal/mol?
[A] no

[Q] hey, is folding enthalpy for this one >= -20 kcal/mol? GGATAGGAAACTATCC ((((((....))))))
[A] no

[Q] Please indicate if the recorded folding enthalpy for GCGTCCGGAAACGGACAC (.(((((....))))).) meets or exceeds -20 kcal/mol.
[A] yes

[Q] Does folding enthalpy meet or surpass -20 kcal/mol for GCGTGGCGAAAGCAAAGC ((.(.((....)).).)) ?
[A] yes

[Q] Threshold query (folding enthalpy >= -20 kcal/mol) on GCGCGACCGAAAGGTCGC (((..(((....))))))
[A] yes

[Q] Reported folding enthalpy at or above -20 kcal/mol? GATCACGGATGTGATC ((((((....))))))
[A] no

[Q] Does the sequence GATCGGCCGCCCGATC ((((((....)))))) have recorded folding enthalpy that is -20 kcal/mol or more?
[A] no

[Q] Does GCGCACGGAAACGTGTGC ((.((((....)))).)) have a reported folding enthalpy of at least -20 kcal/mol?
[A] no

[Q] Reported folding enthalpy reaches at least -20 kcal/mol for GATCATTCCAATGATC ((((((....)))))) ?
[A] no

[Q] Given GCTCCATCGAAAGATAGC (((..(((....)))))) , state whether its folding enthalpy is at least -20 kcal/mol.
[A] yes

[Q] Please check the record GCAACGCGAAAGCTATGC (((..((....))..))) and state if its folding enthalpy is at or above -20 kcal/mol.
[A] yes

[Q] Is the recorded value of folding enthalpy equal to or greater than -20 kcal/mol for this sequence? GATCTTCAAAAGATC ((((((...))))))
[A] yes

[Q] State whether the measured folding enthalpy reaches -20 kcal/mol, counting equality as reaching it, for GTGAGCGAAAGCTCGCAC ((((((....)))..)))
[A] yes

[Q] // inclusive: folding enthalpy at least -20 kcal/mol? input: GCTGAGCGAAAGCACCGC ((.(.((....)).).))
[A] yes

[Q] Exam item: decide whether the reported folding enthalpy for GAGCTAGCGAAAGCTCTC (((..(((....)))))) is at least -20 kcal/mol.
[A] yes

[Q] State whether the measured folding enthalpy reaches -20 kcal/mol, counting equality as reaching it, for GTCGCCGGAAACGGTGAC (((.(((....))).)))
[A] no

[Q] Quick check: does GAAAGGGCGAAAGCCTTC (((..(((....)))))) have folding enthalpy greater than or equal to -20 kcal/mol?
[A] yes

[Q] Hi, just wondering whether GCTGGTGGAAACACTAGC (((.(((....))).))) shows folding enthalpy of -20 kcal/mol or higher.
[A] no

[Q] Would you say GTCTGTGAAAACAGAC ((((((....)))))) shows folding enthalpy at minimum -20 kcal/mol?
[A] no

[Q] Does the reported folding enthalpy for GGCGGGGGAAACTCCGCC (((((.(....).))))) fall at or above the -20 kcal/mol mark?
[A] no

[Q] # check: folding enthalpy of GATCTAGATATAGATC ((((((....)))))) is greater than or equal to -20 kcal/mol
[A] no

[Q] API: above_or_equal(metric=folding enthalpy, cutoff=-20 kcal/mol) for item GACATTCCGAAAGGAGTC (((..(((....))))))
[A] yes

[Q] Tell me whether folding enthalpy is at least -20 kcal/mol here: GAAGTGCCGAAAGGCTTC (((..(((....))))))
[A] yes

[Q] API: above_or_equal(metric=folding enthalpy, cutoff=-20 kcal/mol) for item GATCCCGATGGGGATC ((((((....))))))
[A] no

[Q] Say whether GATCTCCCGGGAGATC ((((((....)))))) shows folding enthalpy of -20 kcal/mol or more.
[A] no

[Q] Form field: folding enthalpy at least -20 kcal/mol? Entry: GCCAGGCGAAAGCGCGGC (((..((....))..)))
[A] yes

[Q] Identify whether the reported folding enthalpy of the following sequence is -20 kcal/mol or greater: GCCTAGCGAAAGCTCCGC ((..(((....)))..))
[A] yes

[Q] Please check the record GTTGATACGAAAGTAAAC (((..(((....)))))) and state if its folding enthalpy is at or above -20 kcal/mol.
[A] yes

[Q] Answer whether folding enthalpy of GCATGCGAAAGCAGTGC ((((((....))).))) is greater than or equal to -20 kcal/mol.
[A] no

[Q] Is folding enthalpy at least -20 kcal/mol? Consider GCTATGCGAAAGCGTGGC ((.(.((....)).).))
[A] no

[Q] Say whether GCTATTGGAAACGATAGC (((((.(....).))))) shows folding enthalpy of -20 kcal/mol or more.
[A] no

[Q] Check the entry CGAATCGGAAACGAATCG (((.(((....))).))) : does folding enthalpy equal or exceed -20 kcal/mol?
[A] no

[Q] Check if folding enthalpy >= -20 kcal/mol (inclusive). Item: GCTTCGCGAAAGCCATGC ((.(.((....)).).))
[A] yes

[Q] Decide: is the reported value of folding enthalpy for GCGTTGTCACGC ((((....)))) equal to or greater than -20 kcal/mol?
[A] no
